- test-system: Nuclear factor erythroid 2-related factor 2 (Homo sapiens) (UniProt Q16236)
- Sequence (Q16236 whole entry): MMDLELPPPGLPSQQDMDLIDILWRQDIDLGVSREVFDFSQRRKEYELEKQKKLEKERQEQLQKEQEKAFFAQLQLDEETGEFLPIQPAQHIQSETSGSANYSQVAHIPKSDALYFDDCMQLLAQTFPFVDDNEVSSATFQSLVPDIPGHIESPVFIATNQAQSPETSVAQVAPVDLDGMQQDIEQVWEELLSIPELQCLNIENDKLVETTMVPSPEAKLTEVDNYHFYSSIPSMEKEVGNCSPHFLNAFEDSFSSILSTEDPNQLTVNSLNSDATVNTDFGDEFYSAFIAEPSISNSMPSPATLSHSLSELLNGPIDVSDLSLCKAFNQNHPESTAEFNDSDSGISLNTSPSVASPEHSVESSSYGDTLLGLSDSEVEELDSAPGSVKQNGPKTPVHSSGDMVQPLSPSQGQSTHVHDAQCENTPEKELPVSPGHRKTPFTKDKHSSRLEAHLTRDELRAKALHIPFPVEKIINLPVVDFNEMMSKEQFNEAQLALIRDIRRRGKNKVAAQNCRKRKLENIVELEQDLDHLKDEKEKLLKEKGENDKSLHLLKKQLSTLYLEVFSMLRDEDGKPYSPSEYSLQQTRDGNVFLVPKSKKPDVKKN
- measurement-description: Activation of Nrf2 in human HaCaT cells assessed as increase in nuclear Nrf2 accumulation at 25 uM after 6 hrs by Western blot analysis
- Assay type: cell-based
Active and inactive are the calls of the source. No cut-off for these calls is given here.

molecule	test-system	Activity
C/C=C(/C)C(=O)O[C@H]1[C@H](OC(=O)/C(C)=C/C)[C@]2(CO)[C@H](O)[C@H](O)[C@]3(C)C(=CC[C@@H]4[C@@]5(C)CC[C@H](O[C@@H]6O[C@H](C(=O)O)[C@@H](O)[C@H](O[C@@H]7OC[C@H](O)[C@H](O[C@@H]8O[C@@H](C)[C@H](O)[C@@H](O)[C@H]8O)[C@H]7O)[C@H]6O)[C@@](C)(CO)[C@@H]5CC[C@]43C)[C@@H]2CC1(C)C	Nuclear factor erythroid 2-related factor 2 (Homo sapiens) (UniProt Q16236)	Active
C/C=C(/C)C(=O)O[C@H]1[C@H](OC(=O)C(C)CC)[C@]2(CO)[C@H](O)[C@H](O)[C@]3(C)C(=CC[C@@H]4[C@@]5(C)CC[C@H](O[C@@H]6O[C@H](C(=O)O)[C@@H](O)[C@H](O[C@@H]7OC[C@H](O)[C@H](O[C@@H]8O[C@@H](C)[C@H](O)[C@@H](O)[C@H]8O)[C@H]7O)[C@H]6O)[C@@](C)(CO)[C@@H]5CC[C@]43C)[C@@H]2CC1(C)C (stereo partly drawn)	Nuclear factor erythroid 2-related factor 2 (Homo sapiens) (UniProt Q16236)	Active
C/C=C(/C)C(=O)O[C@H]1[C@H](OC(=O)C(C)CC)[C@]2(CO)[C@H](O)[C@H](O)[C@]3(C)C(=CC[C@@H]4[C@@]5(C)CC[C@H](O[C@@H]6O[C@H](C(=O)O)[C@@H](O)[C@H](O[C@@H]7OC[C@H](O)[C@H](O[C@@H]8O[C@@H](C)[C@H](O)[C@@H](O)[C@H]8O)[C@H]7O)[C@H]6O)[C@@](C)(C=O)[C@@H]5CC[C@]43C)[C@@H]2CC1(C)C (stereo partly drawn)	Nuclear factor erythroid 2-related factor 2 (Homo sapiens) (UniProt Q16236)	Active

###

- test-system: Nuclear factor erythroid 2-related factor 2 (Homo sapiens)
- measurement-description: Activation of Nrf2 in human HaCaT cells at 25 uM after 6 hrs by ARE-driven luciferase reporter gene assay relative to control
- Format: cell-based
The source made the active and inactive calls. No cut-off for these calls is given here.

molecule	Activity
C/C=C(/C)C(=O)O[C@H]1[C@H](OC(=O)CC(C)C)[C@]2(CO)[C@H](O)C[C@]3(C)C(=CC[C@@H]4[C@@]5(C)CC[C@H](O[C@@H]6O[C@H](C(=O)O)[C@@H](O)[C@H](O[C@@H]7OC[C@H](O)[C@H](O[C@@H]8O[C@@H](C)[C@H](O)[C@@H](O)[C@H]8O)[C@H]7O)[C@H]6O)[C@@](C)(CO)[C@@H]5CC[C@]43C)[C@@H]2CC1(C)C	Active
C/C=C(/C)C(=O)O[C@H]1[C@H](OC(=O)C(C)CC)[C@]2(CO)[C@H](OC(C)=O)C[C@]3(C)C(=CC[C@@H]4[C@@]5(C)CC[C@H](O[C@@H]6O[C@H](C(=O)O)[C@@H](O)[C@H](O[C@@H]7OC[C@H](O)[C@H](O[C@@H]8O[C@@H](C)[C@H](O)[C@@H](O)[C@H]8O)[C@H]7O)[C@H]6O)[C@@](C)(CO)[C@@H]5CC[C@]43C)[C@@H]2CC1(C)C (some centres not stated)	Active

Source of measurements: ChEMBL document CHEMBL4266043
